// values below are reported Ki
- system.tested: Recombinant cruzain (Trypanosoma cruzi, UniProt P25779)
- Construct: consisting of the catalytic domain of cruzipain but excluding the carboxy-terminal extension
- Sequence (P25779 123-337 limits assumed): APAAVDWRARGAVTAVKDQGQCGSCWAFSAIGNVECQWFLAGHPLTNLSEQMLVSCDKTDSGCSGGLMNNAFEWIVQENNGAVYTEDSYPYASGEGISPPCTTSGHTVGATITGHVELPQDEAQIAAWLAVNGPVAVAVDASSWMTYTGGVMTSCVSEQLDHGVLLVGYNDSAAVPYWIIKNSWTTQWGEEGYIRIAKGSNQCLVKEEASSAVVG
- assay.comment: Enzyme kinetic assay for cruzain (Z-FR-AMC hydrolysis)
- setup.conditions: pKi = -log10(Ki/M); uncertainty in parentheses; 37°C, pH 5.5
Kindly provide the numeric value in µM only, without the unit symbol.

Solved cases below.
>>> result_value("N#CC1(NC(=O)[C@H](Cc2ccccc2)N[C@H](c2ccccc2)C(F)(F)F)CC1")
2.51
>>> result_value("CS(=O)(=O)c1ccc(N2CCN(C(=O)[C@@H]3CCCC[C@H]3C(=O)NC3(C#N)CC3)CC2)cc1")
5.01
>>> result_value("CC(C)(F)C[C@H](N[C@@H](c1ccc(-c2ccc(S(C)(=O)=O)cc2)cc1)C(F)(F)F)C(=O)NC1(C#N)CC1")
0.126

Okay, now this compound:
Task item: Can you look up the measured Ki of N#CCNC(=O)[C@@H]1CCCC[C@H]1C(=O)N1CCN(c2ccccc2)CC1 for me?
Reply: 5.01

Source: paper PMC5344518
